B1: POU domain, class 2, transcription factor 3, residues 186 to 260; numbered along this chain, Q9UKI9 (parent)
chain: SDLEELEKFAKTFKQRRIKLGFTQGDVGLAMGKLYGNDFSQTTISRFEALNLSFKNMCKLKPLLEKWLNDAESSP

- Variants of: B1
- PROCEDURE_TEXT: abundance fitness (aPCA) (normalised: wild type 0, dead -1); higher = more abundant; growth selection in yeast, the domain comes from the species named
- CONDITION: Homo sapiens
Each record's abundance fitness is compared with category 1 (below -0.2), category 2 (-0.2 to below -0.01), category 3 (-0.01 or more) to give its class.

VARIANT_NAME | CLASS_NAME
L29S | category 3
A71V | category 3
I18E | category 3
F22R | category 1
S73N | category 3
K59M | category 2
K55N | category 2
T42I | category 3
L63W | category 2
K66W | category 2
F54W | category 2
S53R | category 2
S45W | category 2
F47L | category 2
S73M | category 2
F54R | category 3
R46S | category 3
S45H | category 2
L29Y | category 2
R46M | category 3
S73Y | category 2
M57A | category 2
E65A | category 2
W67T | category 1
S53V | category 1
F47T | category 1
K61A | category 2
P62G | category 2
D26V | category 1
A49R | category 2
Q15A | category 3
V27D | category 1
N37G | category 3
L50A | category 3
D70F | category 2
L68D | category 1
L60G | category 1
S45F | category 1
L64E | category 1
K55R | category 2
P75L | category 3
G28T | category 3
E72W | category 2
I18D | category 2
A49T | category 1
K55P | category 2
G28C | category 1
K55T | category 3
F54Y | category 3
R16G | category 2
L20K | category 1
F54E | category 3
L64D | category 1
L52P | category 1
E48N | category 1
L68I | category 3
Q41C | category 2
F9S | category 2
P62T | category 2
N51H | category 3
K33G | category 3
N51E | category 2
S45R | category 2
L68T | category 1
E5C | category 3
S74L | category 2
I18W | category 1
E5T | category 3
C58P | category 1
F54V | category 2
K19D | category 3
E65D | category 2
N69H | category 3
M57D | category 1
F54T | category 3
A71H | category 3
S73F | category 2
N56F | category 2
F47I | category 1
L29M | category 3
G36S | category 3
L60H | category 1
R46Y | category 2
F47Q | category 1
E48S | category 1
E5R | category 3
L52S | category 1
W67E | category 1
P62R | category 2
